Examples of compounds with documented Nav1.1 current amplification rate (%) follow.
# measured_on: human Nav1.1 (Homo sapiens)
# Construct: host or cells: HEK293
# experiment_notes: Amplification of Nav1.1-derived voltage-dependent sodium current (Nav1.1 current), cell line stably expressing human Nav1.1, automated patch clamp
# Format: cell-based
# condition_info: 10 μmol/L compound; change of the area under the curve of Nav1.1 current (Test Result 1)
parameter: Nav1.1 current amplification rate (%)

INSERT INTO results (compound, units_symbol, number) VALUES
  ('CC1CCN(c2ccc(=O)n(CC(=O)Nc3ccnc(N4CCOCC4)c3)n2)CC1 [Example 66]', '%', 49),
  ('CC1CC=C(c2ccc(=O)n(CC(=O)N3CCN(c4cccnc4)CC3)n2)CC1 (racemic) [Example 395]', '%', 343),
  ('Cc1cncc(N2CCN(C(=O)Cn3nc(C4=CCC(C)(C)CC4)ccc3=O)CC2)c1 [Example 442]', '%', 414),
  ('CC1CC=C(c2ccc(=O)n(CC(=O)N3CC=C(c4cncc(F)c4)CC3)n2)CC1 (racemic) [Example 397]', '%', 273),
  ('COc1cc(=O)n(CC(=O)Nc2ccc3ocnc3c2)nc1C1=CCC(C(F)(F)F)CC1 (stereo not drawn) [Example 450]', '%', 187),
  ('CC1CCC(c2ccc(=O)n(CC(=O)N3CCc4c(N5CCOCC5)cccc43)n2)CC1 (single isomer, unassigned) [Example 535]', '%', 277),
  ('COC1CN(c2cccc3c2CCN3C(=O)Cn2nc(C3=CCC(C)(C)CC3)ccc2=O)C1 [Example 434]', '%', 232),
  ('CC1CCN(c2ccc(=O)n(CC(=O)Nc3cccc(-n4ccnc4)c3)n2)CC1 [Example 67]', '%', 177),
  ('CC1CC=C(c2ccc(=O)n(CC(=O)N3CC=C(c4cccnc4)CC3)n2)CC1 (stereo not drawn) [Example 402]', '%', 323),
  ('COc1cc(C2=CCC(C(F)(F)F)CC2)nn(CC(=O)Nc2ccc3ocnc3c2)c1=O (stereo not drawn) [Example 447]', '%', 148),
  ('COc1cc(=O)n(CC(=O)N2CCc3c(N4CCOCC4)cccc32)nc1C1=CCC(C)(C)CC1 [Example 470]', '%', 522),
  ('CC1CC=C(c2ccc(=O)n(CC(=O)N3CCC(c4ccccc4)CC3)n2)CC1 (racemic) [Example 256]', '%', 36),
  ('CC1(C)CC=C(c2ccc(=O)n(CC(=O)N3CCc4c(N5CCOCC5)cccc43)n2)C1 [Example 475]', '%', 633),
  ('CC1(C)CC=C(c2ccc(=O)n(CC(=O)N3CCC4(CCOCC4)CC3)n2)CC1 [Example 441]', '%', 30),
  ('CC1CCN(c2ccc(=O)n(CC(=O)Nc3ccc(C#N)nc3)n2)CC1 [Example 51]', '%', 196),
  ('CC1CCN(c2ccc(=O)n(CC(=O)Nc3cncc(C#N)c3)n2)CC1 [Example 60]', '%', 57),
  ('COc1nc2cc(NC(=O)Cn3nc(N4CCC(C)CC4)ccc3=O)ccc2o1 [Example 99]', '%', 103),
  ('CC1CCN(c2ccc(=O)n(CC(=O)Nc3ccn4nccc4c3)n2)CC1 [Example 71]', '%', 131),
  ('Cc1ccc(-c2ccc(=O)n(CC(=O)Nc3ccc4ocnc4c3)n2)cn1 [Example 452]', '%', 10),
  ('COc1cc(C2=CCC(C)(C)CC2)nn(CC(=O)Nc2ccn3ccnc3c2)c1=O [Example 456]', '%', 224),
  ('CC1CCN(c2ccc(=O)n(CC(=O)Nc3ccc4c(c3)ncn4C)n2)CC1 [Example 98]', '%', 15),
  ('COc1cc(C2=CCC(C)CC2)nn(CC(=O)N2CCN(c3cncc(F)c3)CC2)c1=O (racemic) [Example 488]', '%', 376),
  ('COc1cc(NC(=O)Cn2nc(N3CCC(C)CC3)ccc2=O)ccn1 [Example 74]', '%', 70),
  ('O=C(Cn1nc(C2=CCC(F)(F)CC2)ccc1=O)Nc1ccn2ccnc2c1 [Example 464]', '%', 18),
  ('CC1CCN(c2ccc(=O)n(CC(=O)N3CCc4cc(N5CCOCC5)ccc43)n2)CC1 [Example 89]', '%', 187),
  ('Cc1noc2cc(NC(=O)Cn3nc(N4CCC(C)CC4)ccc3=O)ccc12 [Example 84]', '%', 315),
  ('CC1CC=C(c2ccc(=O)n(CC(=O)Nc3ccn4ccnc4n3)n2)CC1 (racemic) [Example 242]', '%', 97);

====

# measured_on: human Nav1.1 (Homo sapiens, UniProt P35498)
# Construct: host or cells: HEK293
# experiment_notes: Amplification of Nav1.1-derived voltage-dependent sodium current (Nav1.1 current), cell line stably expressing human Nav1.1, automated patch clamp
# Type: cell-based
# condition_info: compound 3 μmol/L; HEK293 stably expressing human Nav1.1; read-out: Nav1.1 current amplification rate (%)
# Protocol: Test 1: Evaluation of the Amplification of Nav1.1-Derived Voltage-Dependent Sodium Current (Nav1.1 Current) by Using a Cell Line Stably Expressing Human Nav1.1 (1) Preparation of Test Compounds […] The effect of test compounds on the amplification of Nav1.1-derived voltage-dependent sodium current was evaluated by using a cell line stably expressing human Nav1.1 and HTS automated patch clamp system. […] The Nav1.1 current amplification rates of test compounds were calculated by the following formula: […]
parameter: activation at 3 µM (%)

INSERT INTO assay_data (compound, parameter, units_symbol, number) VALUES
  ('O=C(Cn1nc(N2CCC3(CCC3)C2)ccc1=O)Nc1ccc2c(c1)OCCO2', 'activation at 3 µM', '%', 52),
  ('COc1cc(=O)n(CC(=O)Nc2ccc3oc(C(F)F)nc3c2)nc1C1=CCC(C)(C)CC1', 'activation at 3 µM', '%', 317),
  ('O=C(Cn1nc(C2=CCC3(CC2)CC3(F)F)ccc1=O)N1CCN(c2cncc(C(F)(F)F)c2)CC1 (stereo not shown)', 'activation at 3 µM', '%', 238),
  ('COc1nc2cc(NC(=O)Cn3nc(C4=CCC(C)(C)CC4)c(OC)cc3=O)cc(F)c2o1', 'activation at 3 µM', '%', 255),
  ('COc1cc(=O)n(CC(=O)Nc2ccc3oc(C)nc3c2)nc1C1=CCC(C)(C)CC1', 'activation at 3 µM', '%', 222),
  ('COc1ccc(N2CCN(C(=O)Cn3nc(C4=CCC(C(F)(F)F)CC4)ccc3=O)CC2)cn1 (stereo not shown)', 'activation at 3 µM', '%', 37),
  ('COc1cc(N2CCC3(CCC3)C2)nn(CC(=O)N2CCc3c(N4CCOCC4)cccc32)c1=O', 'activation at 3 µM', '%', 303);

====

# measured_on: human Nav1.1 (Homo sapiens)
# Construct: host or cells: HEK293
# experiment_notes: Amplification of Nav1.1-derived voltage-dependent sodium current (Nav1.1 current), cell line stably expressing human Nav1.1, automated patch clamp
# Assay type: cell-based
# condition_info: 10 μmol/L compound (Test Result 5)
parameter: Nav1.1 current amplification rate (%)

INSERT INTO measurements (molecule, parameter, result) VALUES
  ('N#Cc1ccc(NC(=O)Cn2nc(N3CCC(C(F)(F)F)CC3)ccc2=O)cc1', 'Nav1.1 current amplification rate (%)', '124%'),
  ('CC1CC=C(c2ccc(=O)n(CC(=O)N3CCc4c3ccnc4C3=CCNC3)n2)CC1 (racemic)', 'Nav1.1 current amplification rate (%)', '40%'),
  ('N#Cc1ccc(NC(=O)Cn2nc(N3CCCCC3)ccc2=O)cc1', 'Nav1.1 current amplification rate (%)', '40%'),
  ('O=C(Cn1nc(C2=CCCC2)ccc1=O)N1CCc2c(N3CCOCC3)cccc21', 'Nav1.1 current amplification rate (%)', '128%'),
  ('N#Cc1ccc(NC(=O)Cn2nc(N3CCCC(C(F)(F)F)C3)ccc2=O)cc1 (centres unmarked)', 'Nav1.1 current amplification rate (%)', '59%'),
  ('Cc1c(N2CCC(C)CC2)nn(CC(=O)Nc2ccc(C#N)cc2)c(=O)c1C', 'Nav1.1 current amplification rate (%)', '301%'),
  ('Cc1ccc(-c2ccc(=O)n(CC(=O)Nc3cncnc3)n2)cc1', 'Nav1.1 current amplification rate (%)', '46%'),
  ('CC1CC=C(c2ccc(=O)n(CC(=O)Nc3ccc(C#N)cc3)n2)CC1 (centres unmarked)', 'Nav1.1 current amplification rate (%)', '324%'),
  ('CC1(C)CCCN(c2ccc(=O)n(CC(=O)Nc3ccc(C#N)cc3)n2)C1', 'Nav1.1 current amplification rate (%)', '110%'),
  ('CC1CC=C(c2ccc(=O)n(CC(=O)N3CCN(Cc4ccncc4)CC3)n2)CC1 (racemic)', 'Nav1.1 current amplification rate (%)', '53%'),
  ('N#Cc1ccc(NC(=O)Cn2nc(N3CCCC(O)C3)ccc2=O)cc1 (centres unmarked)', 'Nav1.1 current amplification rate (%)', '3%');
